Sourced from patent US10770169B2

Give measured GI50 for each item. Keep answers brief.
Tested on: panel of 55 breast cancer cell lines
Assay: Cell growth inhibition assay (Cell Titer Glo, 72 h, 9 doses; GI50, TGI, LC50)
Type: cell-based, human
Conditions: Homo sapiens, HCC1500, HCC1500 cell line; censored GI50 values; read-out: GI50 (converted)
One number for each entry, in nM.

{"ITEM SMILES": "CC/C(=C(\\c1ccccc1)c1ccc(OCCN(C)C)cc1)c1ccccc1", "GI50, nM": 105000}
{"ITEM SMILES": "COc1cccc2c1C(=O)c1c(O)c3c(c(O)c1C2=O)C[C@@](O)(C(=O)CO)C[C@@H]3O[C@H]1C[C@H](N)[C@H](O)[C@H](C)O1", "GI50, nM": 200}
{"ITEM SMILES": "CCNCCCNC/C=C\\CNCCCNCC", "GI50, nM": 63100}

# batch size: 3; output GI50 per entry
1. CC[C@@]1(O)C(=O)OCc2c1cc1n(c2=O)Cc2cc3c(CN(C)C)c(O)ccc3nc2-1
2. CCC1=C[C@@H]2CN(C1)Cc1c([nH]c3ccccc13)[C@@](C(=O)OC)(c1cc3c(cc1OC)N(C)[C@H]1[C@@](O)(C(=O)OC)[C@H](OC(C)=O)[C@]4(CC)C=CCN5CC[C@]31[C@@H]54)C2
3. O=C1c2ccccc2-[n+]2ccc3c([nH]c4ccccc43)c21

14.5
11
224

Find the recorded GI50 belonging to CC(C)C[C@H](NC(=O)[C@H](Cc1ccccc1)NC(=O)c1cnccn1)B(O)O and report it. 12.3
